Test system: clinical S. aureus isolate LMY47
Assay: MIC and MBC testing, broth microdilution
Type: cell-based, Staphylococcus aureus
Conditions: Staphylococcus aureus; LMY47; read-out: MBC
assay-readout: MBC (µg/mL)
Write it as a number; the unit µg/mL goes unstated.

Worked set:
| molecule-smiles | unit-of-measurement | test-value |
| --- | --- | --- |
| [H]/N=C(\N)NN=C1CCCc2cc(OCc3cc(F)ccc3F)ccc21 | µg/mL | 8 |
| [H]/N=C(\N)NN=C1CCCc2cc(OCc3ccc(F)c(Cl)c3)ccc21 | µg/mL | 4 |
| [H]/N=C(\N)NN=C1CCCc2cc(OCCCCCCCCCC)ccc21 | µg/mL | 2 |
| [H]/N=C(\N)NN=C1CCCc2cc(OCc3ccc(F)c(F)c3)ccc21 | µg/mL | 8 |

Query: Entry `[H]/N=C(\N)NN=C1CCCc2cc(OCc3cccc(C(F)(F)F)c3)ccc21` : reported MBC = ?
Response: 2

====

Tested on: E. faecium ATCC 35667
Experiment: MIC and MBC testing, broth microdilution
Assay type: cell-based, Enterococcus faecium
Conditions: Enterococcus faecium, ATCC35667; E. faecium ATCC 35667; read-out: MBC
assay-readout: MBC (µg/mL)
Write it as a number; the unit µg/mL goes unstated.

Worked set:
| molecule | MBC, µg/mL |
| --- | --- |
| [H]/N=C(\N)NN=C1CCCc2cc(OCc3ccc(F)c(F)c3)ccc21 | 16 |
| [H]/N=C(\N)NN=C1CCCc2cc(OCCCCCCCCC)ccc21 | 4 |
| [H]/N=C(\N)NN=C1CCCc2cc(OCCCCCCCCCC)ccc21 | 8 |
| [H]/N=C(\N)NN=C1CCCc2cc(OCCCCC)ccc21 | 16 |
| [H]/N=C(\N)NN=C1CCCc2cc(OCc3ccccc3F)ccc21 | 16 |

Query: Entry `[H]/N=C(\N)NN=C1CCCc2cc(OCc3ccc(F)cc3Cl)ccc21` : reported MBC = ?
Response: 16

====

Each entry below lists one item and its recorded MBC value.
System: S. aureus ATCC 29213
Assay: MIC and MBC testing, broth microdilution
Assay type: cell-based, Staphylococcus aureus
Details: Staphylococcus aureus, ATCC29213; S. aureus ATCC 29213; read-out: MBC
Description: The minimum inhibitory concentrations (MICs) and minimum bactericidal concentrations (MBCs) of the synthesized compounds effective against ESKAPE strains, S. aureus clinical isolates, and MRSA were investigated by the broth dilution method. […] The minimum inhibitory concentration (MIC) of all synthesized compounds was tested by the broth microdilution method. […] The MIC of the compounds was recorded as the lowest concentration at which no visible growth was observed. […]
Write it as a number; the unit µg/mL goes unstated.

| molecule-smiles | test-value |
| --- | --- |
| [H]/N=C(\N)NN=C1CCCc2cc(OCc3ccc(F)cc3)ccc21 | 16 |
| [H]/N=C(\N)NN=C1CCCc2cc(OCCCCCCCCC)ccc21 | 8 |
| [H]/N=C(\N)NN=C1CCCc2cc(OCc3ccc(Br)cc3)ccc21 | 8 |
| CC(C)=CCC/C(C)=C/COc1ccc2c(c1)CCC/C2=N\NC(=N)N | 8 |
| [H]/N=C(\N)NN=C1CCCc2cc(OCc3ccc(F)cc3Cl)ccc21 | 32 |

Query: Entry `[H]/N=C(\N)NN=C1CCCc2cc(OCCCCCC)ccc21` : reported MBC = ?
Response: 8

Query: Entry `[H]/N=C(\N)NN=C1CCCc2cc(OCc3cccc(C(F)(F)F)c3)ccc21` : reported MBC = ?
Response: 16

Query: Entry `[H]/N=C(\N)NN=C1CCCc2cc(OCc3cccc(F)c3)ccc21` : reported MBC = ?
Response: 16

====

Test system: clinical S. aureus isolate LMY47
Assay: MIC and MBC testing, broth microdilution
Type: cell-based, Staphylococcus aureus
Details: Staphylococcus aureus; LMY47; read-out: MBC
Each entry below lists one item and its recorded MBC value.
Write it as a number; the unit µg/mL goes unstated.

Worked set:
| molecule-smiles | unit-of-measurement | MBC |
| --- | --- | --- |
| [H]/N=C(\N)NN=C1CCCc2cc(OCc3ccc(C#N)cc3)ccc21 | µg/mL | 32 |
| [H]/N=C(\N)NN=C1CCCc2cc(OCCCCCCC)ccc21 | µg/mL | 4 |
| [H]/N=C(\N)NN=C1CCCc2cc(OCc3ccccc3F)ccc21 | µg/mL | 8 |
| CC(C)=CCC/C(C)=C/COc1ccc2c(c1)CCC/C2=N\NC(=N)N | µg/mL | 16 |
| [H]/N=C(\N)NN=C1CCCc2cc(OCc3c(F)cccc3F)ccc21 | µg/mL | 8 |
| [H]/N=C(\N)NN=C1CCCc2cc(OCc3ccc(C(F)(F)F)cc3)ccc21 | µg/mL | 4 |

Query: Entry `[H]/N=C(\N)NN=C1CCCc2cc(OCc3cccc(Br)c3)ccc21` : reported MBC = ?
Response: 8

Query: Entry `[H]/N=C(\N)NN=C1CCCc2cc(OCCCCCCCCC)ccc21` : reported MBC = ?
Response: 8

Query: Entry `[H]/N=C(\N)NN=C1CCCc2cc(OCc3cc(C(F)(F)F)cc(C(F)(F)F)c3)ccc21` : reported MBC = ?
Response: 8

====

Test system: clinical S. aureus isolate LMY48
Experiment: MIC and MBC testing, broth microdilution
Assay type: cell-based, Staphylococcus aureus
Conditions: Staphylococcus aureus; LMY48; read-out: MBC
Description: Furthermore, the MBC values of the compounds were detected. The minimum inhibitory concentration (MIC) of all synthesized compounds was tested by the broth microdilution method. In brief, compounds dissolved in DMSO were diluted twice continuously in a 96-well plate with MH broth. […]
Each entry below lists one item and its recorded MBC value.
Write it as a number; the unit µg/mL goes unstated.

| molecule | target-of-assay | MBC [µg/mL] |
| --- | --- | --- |
| [H]/N=C(\N)NN=C1CCCc2cc(OCc3cccc(Br)c3)ccc21 [Compound 1R] | clinical S. aureus isolate LMY48 | 16 |
| [H]/N=C(\N)NN=C1CCCc2cc(OCCCCCCCCCC)ccc21 [Compound 2G] | clinical S. aureus isolate LMY48 | 4 |
| [H]/N=C(\N)NN=C1CCCc2cc(OCc3cccc(-c4ccccc4)c3)ccc21 [Compound 1W] | clinical S. aureus isolate LMY48 | 4 |
| [H]/N=C(\N)NN=C1CCCc2cc(OCc3ccc(C(F)(F)F)cc3)ccc21 [Compound 1J] | clinical S. aureus isolate LMY48 | 2 |

Proceed to the following item.
Query: Entry [H]/N=C(\N)NN=C1CCCc2cc(OCc3ccc(F)c(F)c3)ccc21 [Compound 1H] : reported MBC = ?
Response: 4

====

System: S. aureus ATCC 29213
Assay: MIC and MBC testing, broth microdilution
Type: cell-based, Staphylococcus aureus
Conditions: Staphylococcus aureus, ATCC29213; S. aureus ATCC 29213; read-out: MBC
Procedure: The minimum inhibitory concentrations (MICs) and minimum bactericidal concentrations (MBCs) of the synthesized compounds effective against ESKAPE strains, S. aureus clinical isolates, and MRSA were investigated by the broth dilution method. […] The minimum inhibitory concentration (MIC) of all synthesized compounds was tested by the broth microdilution method. […] The MIC of the compounds was recorded as the lowest concentration at which no visible growth was observed. […]
Each entry below lists one item and its recorded MBC value.
Write it as a number; the unit µg/mL goes unstated.

Worked set:
| molecule-smiles | test-value |
| --- | --- |
| [H]/N=C(\N)NN=C1CCCc2cc(OCc3ccc(F)cc3F)ccc21 | 8 |
| [H]/N=C(\N)NN=C1CCCc2cc(OCc3cc(F)cc(F)c3)ccc21 | 8 |
| [H]/N=C(\N)NN=C1CCCc2cc(OCc3cccc(-c4ccccc4)c3)ccc21 | 16 |
| [H]/N=C(\N)NN=C1CCCc2cc(OCc3ccc(F)c(F)c3)ccc21 | 8 |

Query: Entry `[H]/N=C(\N)NN=C1CCCc2cc(OCC=C(C)C)ccc21` : reported MBC = ?
Response: 32

====

Each entry below lists one item and its recorded MIC value.
Tested on: A. baumannii ATCC 19606
Test: MIC and MBC testing, broth microdilution
Type: cell-based, Acinetobacter baumannii
Details: Acinetobacter baumannii, ATCC19606, 18 h, read-out: MIC
Procedure: The minimum inhibitory concentrations (MICs) and minimum bactericidal concentrations (MBCs) of the synthesized compounds effective against ESKAPE strains, S. aureus clinical isolates, and MRSA were investigated by the broth dilution method. […] The minimum inhibitory concentration (MIC) of all synthesized compounds was tested by the broth microdilution method. […] The MIC of the compounds was recorded as the lowest concentration at which no visible growth was observed. […]
Write it as a number; the unit mg/L goes unstated.

Worked set:
| molecule-smiles | MIC (mg/L) |
| --- | --- |
| [H]/N=C(\N)NN=C1CCCc2cc(OCc3ccc(C(F)(F)F)cc3)ccc21 | 8 |
| [H]/N=C(\N)NN=C1CCCc2cc(OCCCCCCCC)ccc21 | 8 |
| [H]/N=C(\N)NN=C1CCCc2cc(OCc3cccc(-c4ccccc4)c3)ccc21 | 32 |
| [H]/N=C(\N)NN=C1CCCc2cc(OCc3ccc(F)c(Cl)c3)ccc21 | 4 |
| [H]/N=C(\N)NN=C1CCCc2cc(OCc3ccccc3Br)ccc21 | 8 |

Query: Entry `[H]/N=C(\N)NN=C1CCCc2cc(OCCCC)ccc21` : reported MIC = ?
Response: 8

Query: Entry `[H]/N=C(\N)NN=C1CCCc2cc(OCc3ccccc3F)ccc21` : reported MIC = ?
Response: 8

Query: Entry `CC(C)=CCC/C(C)=C/COc1ccc2c(c1)CCC/C2=N\NC(=N)N` : reported MIC = ?
Response: 8

Query: Entry `[H]/N=C(\N)NN=C1CCCc2cc(OCc3ccc(F)cc3Cl)ccc21` : reported MIC = ?
Response: 16

Query: Entry `[H]/N=C(\N)NN=C1CCCc2cc(OCCCCCC)ccc21` : reported MIC = ?
Response: 4

Query: Entry `[H]/N=C(\N)NN=C1CCCc2cc(OCc3cccc(F)c3)ccc21` : reported MIC = ?
Response: 8
